Reference source for all entries: patent US20210395761

ASSAYED_SYSTEM: SPβc2 serine recombinase (SPβc2-HA-NLS) (Bacillus subtilis phage SPβc2, UniProt O32006 SEQ:1-545)
Sequence (O32006 whole entry): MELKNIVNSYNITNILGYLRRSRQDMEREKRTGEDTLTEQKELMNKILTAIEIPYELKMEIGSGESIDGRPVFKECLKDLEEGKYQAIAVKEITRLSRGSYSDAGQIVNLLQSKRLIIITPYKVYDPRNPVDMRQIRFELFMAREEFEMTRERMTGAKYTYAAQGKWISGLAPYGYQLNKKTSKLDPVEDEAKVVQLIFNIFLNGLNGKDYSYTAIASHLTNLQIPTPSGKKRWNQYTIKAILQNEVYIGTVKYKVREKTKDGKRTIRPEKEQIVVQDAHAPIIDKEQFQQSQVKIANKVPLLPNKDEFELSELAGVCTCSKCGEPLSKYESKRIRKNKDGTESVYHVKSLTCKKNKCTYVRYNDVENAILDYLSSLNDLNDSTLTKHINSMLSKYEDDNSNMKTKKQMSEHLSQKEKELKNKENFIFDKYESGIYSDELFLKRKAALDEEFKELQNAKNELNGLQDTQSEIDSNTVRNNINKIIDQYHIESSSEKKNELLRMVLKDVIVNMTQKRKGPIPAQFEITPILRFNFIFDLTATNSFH
METHOD_DESCRIPTION: cell_activity; partner attP vector
SETTINGS: tags: C-terminal HA and SV40 NLS
Protocol: Wild tobacco relative Nicotiana benthamiana (Benthi) events were generated through co-transfection of a SPβc2 expression vector (or control filler vector: CAT) plus a target integration vector containing GFP, NptII, and a SPβc2 attachment site (attP, attB, or site-less control). Colonies were regenerated in the presence of a kanamycin gradient to detect NptII and the presence of GFP was determined through illumination with a blue “biolight” together with an appropriate filter (FIG. 1). […]
READOUT: activity
Please answer using a numeric value trailed by its unit.

// field: activity; key: N. benthamiana pseudo-attB Niben101Scf04574 (dsDNA) DNA 1: TAGGCTTACATTCCTGATGTACTATCCCATTATGCAATAATAAAGATGCAAAATAGGAAATGTCATTGACAGCTACGAGATCTATCTTTATTGATTCACT DNA 2: AGTGAATCAATAAAGATAGATCTCGTAGCTGTCAATGACATTTCCTATTTTGCATCTTTATTATTGCATAATGGGATAGTACATCAGGAATGTAAGCCTA ; value = 1 integration events

// field: activity; key: N. benthamiana pseudo-attB Niben101Scf04030 (dsDNA) DNA 1: TTGCTGTCTTTTCATACTTTTCTAAGTTGAAAGTACTTGAAAGTACGACCAAGAAAATGATTATATTTGACACAGAAAATGCAAGGTACTTTGAATGTGA DNA 2: TCACATTCAAAGTACCTTGCATTTTCTGTGTCAAATATAATCATTTTCTTGGTCGTACTTTCAAGTACTTTCAACTTAGAAAAGTATGAAAAGACAGCAA ; value = 2 integration events

// field: activity; key: N. benthamiana pseudo-attB Niben101Scf00773 (dsDNA) DNA 1: ACATGGAGCAATGATGGAGAAAAATGGTGGTCATTACTACTGAAGTTGTCAAAGCAAAGCTGTCAGGTAACATCAAATGATCTCTAAATCAATTAGTCTT DNA 2: AAGACTAATTGATTTAGAGATCATTTGATGTTACCTGACAGCTTTGCTTTGACAACTTCAGTAGTAATGACCACCATTTTTCTCCATCATTGCTCCATGT ; value = 1 integration events

// field: activity; key: N. benthamiana pseudo-attB Niben101Scf11415 (dsDNA) DNA 1: CTAATATACATTGACAGTGTTAAAAAAAATCTATTAACGACAATATAGAGAAGAGAGTACTTACATGAATGACGTCTACTTTGACTCCGTCAATTCCAAC DNA 2: GTTGGAATTGACGGAGTCAAAGTAGACGTCATTCATGTAAGTACTCTCTTCTCTATATTGTCGTTAATAGATTTTTTTTAACACTGTCAATGTATATTAG ; value = 1 integration events

// field: activity; key: N. benthamiana pseudo-attB Niben101Scf13522 (dsDNA) DNA 1: GGATAAGGGAGGGTTTAGATATTTTGAAAGGGTTAAGGGGTAAAATCACTAAGGGGGAATTAACAATGCACACTAGGGTTGCCTTAAAAGTGCCTATATA DNA 2: TATATAGGCACTTTTAAGGCAACCCTAGTGTGCATTGTTAATTCCCCCTTAGTGATTTTACCCCTTAACCCTTTCAAAATATCTAAACCCTCCCTTATCC ; value = 2 integration events
